inhibition at 30 µM values by entry
biological target: TMPRSS4 serine protease (Homo sapiens, UniProt Q9NRS4); construct: TMPRSS4 serine protease domain (205th Val˜437th Leu) was cloned in pET21b/NdeI-XhoI; inferred from pET21b XhoI cloning and Ni-NTA purification) (C); made in house; host or cells: E. coli BL21 (DE3); experiment: Inhibitory effect on TMPRSS4 serine protease activity using peptide substrate; format: biochemical; conditions: 30 uM compound; kallikrein peptide substrate 100 μM; DMSO negative control; read-out: Intracellular protease activity Inhibition % 30 uM
Sequence (Q9NRS4 205-437): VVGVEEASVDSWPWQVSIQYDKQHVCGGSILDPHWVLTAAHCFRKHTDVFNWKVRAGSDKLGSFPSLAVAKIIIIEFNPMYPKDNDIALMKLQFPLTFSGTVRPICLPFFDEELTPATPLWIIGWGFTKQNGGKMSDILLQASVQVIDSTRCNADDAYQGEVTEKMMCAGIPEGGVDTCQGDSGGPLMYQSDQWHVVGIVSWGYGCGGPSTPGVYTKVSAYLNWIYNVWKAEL
quantity: inhibition at 30 µM (%)

>  <molecule>
O=C(NCc1cc(C(F)(F)F)cc(C(F)(F)F)c1)c1cc(Cl)ccc1O

>  <readout.unit>
%

>  <value.measured>
63

$$$$
>  <molecule>
O=C(Nc1cc(C(F)(F)F)ccc1Br)c1cc(Cl)ccc1O

>  <readout.unit>
%

>  <value.measured>
100

$$$$
>  <molecule>
Cc1c(C(F)(F)F)cc(NC(=O)c2cc(Cl)ccc2O)cc1C(F)(F)F

>  <readout.unit>
%

>  <value.measured>
94

$$$$
>  <molecule>
CC(=O)Nc1ccc(O)c(C(=O)Nc2cc(C(F)(F)F)cc(C(F)(F)F)c2)c1

>  <readout.unit>
%

>  <value.measured>
0

$$$$
>  <molecule>
NC(=O)c1ccc(O)c(C(=O)Nc2cc(C(F)(F)F)cc(C(F)(F)F)c2)c1

>  <readout.unit>
%

>  <value.measured>
21

$$$$
>  <molecule>
O=C(Nc1nnc(C(F)(F)F)s1)c1cc(Cl)ccc1O

>  <readout.unit>
%

>  <value.measured>
75

$$$$
>  <molecule>
Nc1ccc(O)c(C(=O)Nc2cc(C(F)(F)F)cc(C(F)(F)F)c2)c1

>  <readout.unit>
%

>  <value.measured>
30

$$$$
>  <molecule>
O=C(Nc1ccccc1)c1cc(Cl)ccc1O [Example 59, 5-chloro-2-hydroxy-N-phenylbenzamide]

>  <readout.unit>
%

>  <value.measured>
13

$$$$
>  <molecule>
O=C(Nc1cc(C(F)(F)F)cc(C(F)(F)F)c1)c1cc2ccccc2cc1O

>  <readout.unit>
%

>  <value.measured>
96

$$$$
>  <molecule>
O=C(Nc1ccnc(Cl)c1)c1cc(Cl)ccc1O

>  <readout.unit>
%

>  <value.measured>
35

$$$$
>  <molecule>
Cc1ccc(O)c(C(=O)Nc2cc(C(F)(F)F)cc(C(F)(F)F)c2)c1

>  <readout.unit>
%

>  <value.measured>
64

$$$$
>  <molecule>
O=C(Nc1cc(C(F)(F)F)ccc1C(F)(F)F)c1cc(Cl)ccc1O

>  <readout.unit>
%

>  <value.measured>
54

$$$$
>  <molecule>
COc1ccc(O)c(C(=O)Nc2cc(C(F)(F)F)cc(C(F)(F)F)c2)c1

>  <readout.unit>
%

>  <value.measured>
53

$$$$
>  <molecule>
O=C(Nc1cc(C(F)(F)F)cc(C(F)(F)F)c1)c1ccc(C(F)(F)F)cc1O

>  <readout.unit>
%

>  <value.measured>
79

$$$$
>  <molecule>
O=C(Nc1nccs1)c1cc(Cl)ccc1O

>  <readout.unit>
%

>  <value.measured>
44

$$$$
>  <molecule>
O=C(Nc1cc(Cl)c(Cl)c(Cl)c1)c1cc(Cl)ccc1O

>  <readout.unit>
%

>  <value.measured>
23

$$$$
>  <molecule>
O=C(Nc1cc(C(F)(F)F)ccc1Cl)c1cc(Cl)ccc1O

>  <readout.unit>
%

>  <value.measured>
99

$$$$
>  <molecule>
O=C(Nc1ncccn1)c1cc(Cl)ccc1O

>  <readout.unit>
%

>  <value.measured>
0

$$$$
>  <molecule>
O=C(Nc1ncc(C(F)(F)F)cc1Cl)c1cc(Cl)ccc1O

>  <readout.unit>
%

>  <value.measured>
0

$$$$
>  <molecule>
N#Cc1ccc(NC(=O)c2cc(Cl)ccc2O)cc1C(F)(F)F

>  <readout.unit>
%

>  <value.measured>
88

$$$$

The reported numbers originate from patent US9266872B2.
